target: UniProtKB P08183; assay: Inhibition of p-glycoprotein-mediated rhodamine-123 efflux in human K562/p-gp cells at 0.5 uM after 1 hr by flow cytometry relative to tariquidar; type: cell-based; settings: K562/p-gp cells, probe rhodamine-123
recordedEndpoint: inhibition at 1 h, 0.5 µM (%)

compound: COc1cc2c(cc1OC)CN(CCc1ccc(NC(=O)c3ccccc3NC(=O)c3cnc4ccccc4c3)cc1)CC2
systemName: UniProtKB P08183
recordedEndpoint: inhibition at 1 h, 0.5 µM
unitOfMeasure: %
reportedMeasurement: 90.5

----------
tested on: K562; assay: Effect on rhodamine-123 efflux in wild type human K562 cells at 0.5 uM after 1 hr by flow cytometry; type: ADME, cell-based; conditions: k562, 1 h
recordedEndpoint: Activity

compound: COc1cc2c(cc1OC)CN(CCc1ccc(NC(=O)c3ccccc3NC(=O)c3cnc4ccccc4c3)cc1)CC2
reportedMeasurement: Non-toxic
//
compound: COc1cc2c(cc1OC)CN(CCc1ccc(NC(=O)c3ccccc3N(S(=O)(=O)c3ccccc3)S(=O)(=O)c3ccccc3)cc1)CC2
reportedMeasurement: Non-toxic
//
compound: COc1cc2c(cc1OC)CN(CCc1ccc(NC(=O)c3ccccc3NC(=O)/C=C/c3ccccc3)cc1)CC2
reportedMeasurement: Non-toxic
//
compound: COc1cc2c(cc1OC)CN(CCc1ccc(NC(=O)c3ccccc3NC(=O)c3ccco3)cc1)CC2
reportedMeasurement: Non-toxic
//
compound: COc1cc2c(cc1OC)CN(CCc1ccc(NC(=O)c3ccccc3N(S(=O)(=O)c3ccc(Br)cc3)S(=O)(=O)c3ccc(Br)cc3)cc1)CC2
reportedMeasurement: Non-toxic
//
compound: COc1cc2c(cc1OC)CN(CCc1ccc(NC(=O)c3ccccc3NC(=O)c3ccc(F)cc3[N+](=O)[O-])cc1)CC2
reportedMeasurement: Non-toxic
//
compound: COc1cc2c(cc1OC)CN(CCc1ccc(NC(=O)c3cc(OC)c(OC)cc3NS(=O)(=O)c3ccc(C(C)(C)C)cc3)cc1)CC2
reportedMeasurement: Non-toxic

----------
test system: SW-620; assay: Potentiation of doxorubicin-induced cytotoxicity against human SW620 cells at 200 nM after 72 hrs by SRB assay relative to control; type: functional
fold change (FC) reference

compound: COc1cc2c(cc1OC)CN(CCc1ccc(NC(=O)c3ccccc3NC(=O)c3ccco3)cc1)CC2
fold change (FC): 2.1

compound: COc1cc2c(cc1OC)CN(CCc1ccc(NC(=O)c3ccccc3NC(=O)c3ccc(F)cc3[N+](=O)[O-])cc1)CC2
fold change (FC): 1.6

compound: COc1cc2c(cc1OC)CN(CCc1ccc(NC(=O)c3ccccc3NC(=O)c3cnc4ccccc4c3)cc1)CC2
fold change (FC): 0.36

compound: COc1cc2c(cc1OC)CN(CCc1ccc(NC(=O)c3cc(OC)c(OC)cc3NC(=O)c3cnc4ccccc4c3)cc1)CC2
fold change (FC): 0.57

----------
target: ATP-dependent translocase ABCB1 (Homo sapiens); assay: Inhibition of p-glycoprotein in human LCC6/MDR cells assessed as increase of paclitaxel-induced cytotoxicity at 200 nM after 72 hrs by SRB assay relative to control; format: cell-based; settings: 0.2 µM

compound: COc1cc2c(cc1OC)CN(CCc1ccc(NC(=O)c3cc(OC)c(OC)cc3NS(=O)(=O)c3ccc(C(C)(C)C)cc3)cc1)CC2
fold change (FC): 21

compound: COc1cc2c(cc1OC)CN(CCc1ccc(NC(=O)c3ccccc3NC(=O)c3ccco3)cc1)CC2
fold change (FC): 46

compound: COc1cc2c(cc1OC)CN(CCc1ccc(NC(=O)c3ccccc3NC(=O)c3ccc(F)cc3[N+](=O)[O-])cc1)CC2
fold change (FC): 35

compound: COc1cc2c(cc1OC)CN(CCc1ccc(NC(=O)c3ccccc3NC(=O)c3cnc4ccccc4c3)cc1)CC2
fold change (FC): 2.8

compound: COc1cc2c(cc1OC)CN(CCc1ccc(NC(=O)c3cc(OC)c(OC)cc3NC(=O)c3cnc4ccccc4c3)cc1)CC2
fold change (FC): 1.9

compound: COc1cc2c(cc1OC)CN(CCc1ccc(NC(=O)c3ccccc3NC(=O)/C=C/c3ccccc3)cc1)CC2
fold change (FC): 33

compound: COc1cc2c(cc1OC)CN(CCc1ccc(NC(=O)c3ccccc3N(S(=O)(=O)c3ccc(Br)cc3)S(=O)(=O)c3ccc(Br)cc3)cc1)CC2
fold change (FC): 36

----------
test: Cytotoxicity against human LCC6 cells at 200 nM after 72 hrs by SRB assay; format: cell-based; settings: lcc6, 72 h, 0.2 µM
recordedEndpoint: Activity

compound: COc1cc2c(cc1OC)CN(CCc1ccc(NC(=O)c3ccccc3NC(=O)c3ccco3)cc1)CC2
recordedEndpoint: Activity
reportedMeasurement: Non-toxic

compound: COc1cc2c(cc1OC)CN(CCc1ccc(NC(=O)c3cc(OC)c(OC)cc3NC(=O)c3cnc4ccccc4c3)cc1)CC2 [TARIQUIDAR]
recordedEndpoint: Activity
reportedMeasurement: Non-toxic

compound: COc1cc2c(cc1OC)CN(CCc1ccc(NC(=O)c3cc(OC)c(OC)cc3NS(=O)(=O)c3ccc(C(C)(C)C)cc3)cc1)CC2
recordedEndpoint: Activity
reportedMeasurement: Non-toxic

----------
biological target: ATP-dependent translocase ABCB1 (Homo sapiens, UniProt P08183); test: Inhibition of p-glycoprotein in human SW620/AD300 cells assessed as increase of doxorubicin-induced cytotoxicity at 200 nM after 72 hrs by SRB assay relative to control; format: cell-based; conditions: sw-620, 72 h, 0.2 µM
Sequence (P08183 whole entry): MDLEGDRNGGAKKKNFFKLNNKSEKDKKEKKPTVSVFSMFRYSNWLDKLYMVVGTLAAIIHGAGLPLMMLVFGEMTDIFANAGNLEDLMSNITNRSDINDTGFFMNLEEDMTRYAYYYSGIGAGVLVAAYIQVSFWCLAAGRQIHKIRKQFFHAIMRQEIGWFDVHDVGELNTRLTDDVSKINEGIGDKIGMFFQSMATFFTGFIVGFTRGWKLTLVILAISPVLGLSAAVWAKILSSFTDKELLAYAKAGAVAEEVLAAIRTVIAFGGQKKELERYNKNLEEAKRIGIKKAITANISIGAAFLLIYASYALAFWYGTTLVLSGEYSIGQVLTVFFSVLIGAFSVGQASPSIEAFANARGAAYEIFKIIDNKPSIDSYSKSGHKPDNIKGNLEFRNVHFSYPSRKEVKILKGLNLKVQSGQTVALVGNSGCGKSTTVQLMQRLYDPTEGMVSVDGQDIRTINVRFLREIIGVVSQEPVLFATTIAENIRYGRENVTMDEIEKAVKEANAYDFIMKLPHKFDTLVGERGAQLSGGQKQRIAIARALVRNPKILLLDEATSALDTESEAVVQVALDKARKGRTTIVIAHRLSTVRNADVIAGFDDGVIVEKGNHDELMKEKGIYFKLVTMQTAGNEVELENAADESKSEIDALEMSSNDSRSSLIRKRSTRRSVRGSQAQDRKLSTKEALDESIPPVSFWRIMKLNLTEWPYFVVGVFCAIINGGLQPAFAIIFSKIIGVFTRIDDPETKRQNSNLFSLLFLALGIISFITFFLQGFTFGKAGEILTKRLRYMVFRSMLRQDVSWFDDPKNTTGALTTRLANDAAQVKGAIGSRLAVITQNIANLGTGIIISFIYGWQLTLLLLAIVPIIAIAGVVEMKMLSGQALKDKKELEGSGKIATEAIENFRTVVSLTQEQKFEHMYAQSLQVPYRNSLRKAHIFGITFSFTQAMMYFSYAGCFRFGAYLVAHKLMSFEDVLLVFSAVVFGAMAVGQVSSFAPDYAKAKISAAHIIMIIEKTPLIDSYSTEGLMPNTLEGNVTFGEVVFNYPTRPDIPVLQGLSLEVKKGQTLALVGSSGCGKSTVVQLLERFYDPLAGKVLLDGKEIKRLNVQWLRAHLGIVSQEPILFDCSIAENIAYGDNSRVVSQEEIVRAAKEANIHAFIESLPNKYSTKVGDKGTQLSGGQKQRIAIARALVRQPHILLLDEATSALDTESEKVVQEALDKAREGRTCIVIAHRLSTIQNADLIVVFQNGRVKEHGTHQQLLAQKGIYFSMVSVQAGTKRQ
fold change (FC) reference
recordedEndpoint: fold change (FC)

molecule: COc1cc2c(cc1OC)CN(CCc1ccc(NC(=O)c3ccccc3NC(=O)c3ccc(F)cc3[N+](=O)[O-])cc1)CC2
systemName: ATP-dependent translocase ABCB1 (Homo sapiens, UniProt P08183)
recordedEndpoint: fold change (FC)
reportedMeasurement: 3.62
//
molecule: COc1cc2c(cc1OC)CN(CCc1ccc(NC(=O)c3cc(OC)c(OC)cc3NC(=O)c3cnc4ccccc4c3)cc1)CC2 [TARIQUIDAR]
systemName: ATP-dependent translocase ABCB1 (Homo sapiens, UniProt P08183)
recordedEndpoint: fold change (FC)
reportedMeasurement: 1.85
//
molecule: COc1cc2c(cc1OC)CN(CCc1ccc(NC(=O)c3ccccc3NC(=O)c3ccco3)cc1)CC2
systemName: ATP-dependent translocase ABCB1 (Homo sapiens, UniProt P08183)
recordedEndpoint: fold change (FC)
reportedMeasurement: 2.63
//
molecule: COc1cc2c(cc1OC)CN(CCc1ccc(NC(=O)c3ccccc3NC(=O)c3cnc4ccccc4c3)cc1)CC2
systemName: ATP-dependent translocase ABCB1 (Homo sapiens, UniProt P08183)
recordedEndpoint: fold change (FC)
reportedMeasurement: 6.23

----------
Target: Broad substrate specificity ATP-binding cassette transporter ABCG2 (Homo sapiens)
Sequence (Q9UNQ0 whole entry): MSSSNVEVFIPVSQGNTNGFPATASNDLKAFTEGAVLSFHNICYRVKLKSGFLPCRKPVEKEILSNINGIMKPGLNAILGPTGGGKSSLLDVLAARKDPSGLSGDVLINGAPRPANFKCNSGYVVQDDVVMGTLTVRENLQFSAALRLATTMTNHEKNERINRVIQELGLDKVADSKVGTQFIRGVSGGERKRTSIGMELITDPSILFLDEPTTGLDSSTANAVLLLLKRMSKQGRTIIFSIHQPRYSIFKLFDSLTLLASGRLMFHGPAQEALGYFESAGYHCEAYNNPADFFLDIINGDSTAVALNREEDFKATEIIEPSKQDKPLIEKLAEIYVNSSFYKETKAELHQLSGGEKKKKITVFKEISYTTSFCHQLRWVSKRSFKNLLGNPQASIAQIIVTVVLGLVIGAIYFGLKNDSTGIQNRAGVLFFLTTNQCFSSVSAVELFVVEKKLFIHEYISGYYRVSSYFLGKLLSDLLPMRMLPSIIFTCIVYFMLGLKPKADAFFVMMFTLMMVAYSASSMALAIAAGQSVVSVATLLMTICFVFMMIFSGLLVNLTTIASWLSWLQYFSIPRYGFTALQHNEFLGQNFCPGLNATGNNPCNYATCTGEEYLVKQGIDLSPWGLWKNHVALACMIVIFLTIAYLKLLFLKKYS
Test: Inhibition of BCRP in human MCF-7 FLV1000 cells assessed as increase of mitoxantrone-induced cytotoxicity at 200 nM after 72 hrs by SRB assay relative to control
Format: cell-based
Conditions: 0.2 µM
Assign labels as follows, please: fulfilled for fold change (FC) below 50; not fulfilled for fold change (FC) equal to or exceeding 50.

compound: COc1cc2c(cc1OC)CN(CCc1ccc(NC(=O)c3cc(OC)c(OC)cc3NC(=O)c3cnc4ccccc4c3)cc1)CC2 [TARIQUIDAR]
classAssignment: fulfilled

compound: COc1cc2c(cc1OC)CN(CCc1ccc(NC(=O)c3ccccc3NC(=O)c3ccco3)cc1)CC2
classAssignment: fulfilled

compound: COc1cc2c(cc1OC)CN(CCc1ccc(NC(=O)c3ccccc3NC(=O)c3ccc(F)cc3[N+](=O)[O-])cc1)CC2
classAssignment: fulfilled

compound: COc1cc2c(cc1OC)CN(CCc1ccc(NC(=O)c3ccccc3NC(=O)/C=C/c3ccccc3)cc1)CC2
classAssignment: not fulfilled

compound: COc1cc2c(cc1OC)CN(CCc1ccc(NC(=O)c3ccccc3NC(=O)c3cnc4ccccc4c3)cc1)CC2
classAssignment: fulfilled
